Tested on: P388/Adr
Assay: cells
Format: cell-based, murine
Details: Table 1C; P388/Adr vs P388/O
Marks after values point to notes of the source that are not given here. Starred links: 1 amine or outer side, 2 acyl side, 3 side chain; linkers in the order of their positions; H or OH if unused. Positions of bridges follow the written chain, without caps; N, C: chain ends. Non-standard residues stand in square brackets, D forms with d. Residues, ends and D or L forms follow the SMILES beside them. Chains are numbered I, II in the order given. Actinocin(9to1) = Cc1c2oc3c(C)ccc(C(=O)[*:1])c3nc-2c(C(=O)[*:2])c(N)c1=O; NMeV = CN[C@H](C(=O)O)C(C)C; Sar = CNCC(=O)O
PROPERTY: folds of resistance (IC50 ratio vs parent cell line)

{"COMPOUND": "Cc1c2oc3c(C)ccc(C(=O)N[C@@H]4C(=O)N[C@H](C(C)C)C(=O)N5CCC[C@H]5C(=O)N(C)CC(=O)N(C)[C@@H](C(C)C)C(=O)O[C@@H]4C)c3nc-2c(C(=O)N[C@@H]2C(=O)N[C@H](C(C)C)C(=O)N3CCC[C@H]3C(=O)N(C)CC(=O)N(C)[C@@H](C(C)C)C(=O)O[C@@H]2C)c(N)c1=O [Actinomycin D, actinomycin D] (I: T[dV]P[Sar][NMeV] / II: T[dV]P[Sar][NMeV]; ester I:1-I:C, II:1-II:C; linker I:N-II:N via Actinocin(9to1))", "RESULT": "(8x)"}

---

Test system: CCRF-CEM/VBL100
Assay: cells
Format: cell-based, human
Details: Table 6; single determinations; listed as 9; read-out: IC50
PROPERTY: pIC50
Please express pIC50 as -log10 of the molar concentration.

Prompt line: GET /values?readout=pIC50&item= C/C(=C\c1csc(C)n1)[C@@H]1C[C@@H]2O[C@]2(C)CCC[C@H](C)[C@H](O)[C@@H](C)C(=O)C(C)(C)[C@@H](O)CC(=O)O1 [#9, epothilone B]
Response line: 8.59

---

Test system: human mammary carcinoma MX-1 xenograft
Settings: initial weight, first treatment day; high doses: dEpoB 25, EpoB 0.6, Taxol 10, Vinblastine 0.4 mg/kg i.p. Q2D from day 7
Counter-ions that a name gives are not always drawn.
Catalogue of Average Body Weight, Day 7 readings, one per entry.
Don't forget the unit after the value.

Example molecules with recorded Average Body Weight, Day 7:
{"MOLECULE": "CC(=O)O[C@H]1C(=O)[C@@]2(C)[C@H]([C@H](OC(=O)c3ccccc3)[C@]3(O)C[C@H](OC(=O)[C@H](O)[C@@H](NC(=O)c4ccccc4)c4ccccc4)C(C)=C1C3(C)C)[C@]1(OC(C)=O)CO[C@@H]1C[C@@H]2O", "Average Body Weight, Day 7": "27.6 g"}
{"MOLECULE": "C/C(=C\\c1csc(C)n1)[C@@H]1C[C@@H]2O[C@]2(C)CCC[C@H](C)[C@H](O)[C@@H](C)C(=O)C(C)(C)[C@@H](O)CC(=O)O1", "Average Body Weight, Day 7": "27.4 g"}
{"MOLECULE": "C/C1=C/C[C@@H](/C(C)=C/c2csc(C)n2)OC(=O)C[C@H](O)C(C)(C)C(=O)[C@H](C)[C@@H](O)[C@@H](C)CCC1", "Average Body Weight, Day 7": "27.0 g"}

Below: the item to evaluate.
Prompt line: Which measured Average Body Weight, Day 7 value corresponds to CC[C@]1(O)C[C@@H]2CN(CCc3c([nH]c4ccccc34)[C@@](C(=O)OC)(c3cc4c(cc3OC)N(C)[C@H]3[C@@](O)(C(=O)OC)[C@H](OC(C)=O)[C@]5(CC)C=CCN6CC[C@]43[C@@H]65)C2)C1 [Vinblastine, Vinblastine sulfate] ?
Response line: 26.4 g
